Assay: Cytotoxicity against mouse J774.A1 cells assessed as reduction in cell viability incubated for 24 hrs by resazurin-dye based analysis
Format: toxicity
Assign labels as follows, please: yes for IC50 at 24 h below 30 µg/mL; no for IC50 at 24 h equal to or exceeding 30 µg/mL.

Examples with answers:
Cc1ccc(-n2c(C)cc(CNCC3CCCCC3)c2C)cc1; yes
Cc1cc(CNNC(=O)c2ccncc2)c(C)n1-c1ccc(Cl)cc1; no
COc1c(N2C[C@@H]3CCCN[C@@H]3C2)c(F)cc2c(=O)c(C(=O)O)cn(C3CC3)c12; yes

Request: Does the reported IC50 at 24 h of Cc1cc(CNCC2CCCCC2)c(C)n1C1CCCCC1 stay below 30 µg/mL?
Result: yes

Request: Here's an entry: Cc1ccc(-n2c(C)cc(CNCc3ccccc3)c2C)cc1 . Is its IC50 at 24 h below 30 µg/mL?
Result: no

---

Experiment: Cytotoxicity against mouse J774.A1 cells assessed as reduction in cell viability incubated for 24 hrs by resazurin-dye based analysis
Assay type: toxicity
We label by threshold. Values of IC50 at 24 h strictly beneath 10 µg/mL are Condition met. Values of 10 µg/mL and up are Condition not met.

Request: IC50 at 24 h under 10 µg/mL? Item: Cc1cc(CNCC2CCCCC2)c(C)n1-c1nc2ccccc2s1
Result: Condition met

Request: Record Cc1cc(CNCC2CCCCC2)c(C)n1Cc1ccc(Cl)cc1 : is its IC50 at 24 h strictly below 10 µg/mL?
Result: Condition met

Request: Determine if Cc1cc(CNCCCCCCCCNC(=N)N)c(C)n1-c1ccc(OCC(=O)N(C)C)cc1.Cl.Cl shows IC50 at 24 h strictly lower than 10 µg/mL.
Result: Condition not met

Request: Is it true that IC50 at 24 h reported for Cc1cc(CNCc2ccccc2)c(C)n1C(C)c1ccccc1 (centres undefined) is less than 10 µg/mL?
Result: Condition not met

Request: Hello, is IC50 at 24 h of the following molecule strictly smaller than 10 µg/mL? Cc1cc(CNCc2ccccc2)c(C)n1CC1CCCCC1
Result: Condition not met

Request: Regarding CCOc1ccc(-n2c(C)cc(CNC3CCCCC3)c2C)cc1 , kindly confirm whether its IC50 at 24 h is beneath 10 µg/mL.
Result: Condition met

Request: Is IC50 at 24 h strictly under 10 µg/mL for the entry Cc1cc(CNCc2ccccc2)c(C)n1Cc1ccc(F)cc1 ?
Result: Condition not met

Request: Quick check: IC50 at 24 h of Cc1cc(CNCC2CCCCC2)c(C)n1C(C)c1ccccc1 (centres undefined) under 10 µg/mL?
Result: Condition not met

---

Assay: Selectivity index, ratio of IC50 for cytotoxicity against human MRC5 cells to MIC90 for anti-tubercular activity against Mycobacterium tuberculosis H37Rv
Format: toxicity, cell-based
Settings: read-out: Selectivity Index
Consider the following molecules; for each one, report its selectivity ratio.
Numbers only.

# count of solved cases: 6
Cc1ccc(-n2c(C)cc(CNCc3ccccc3)c2C)cc1; 2.3
Cc1cc(CNCc2ccccc2)c(C)n1C(C)c1ccccc1 (stereo not drawn); 4.2
Cc1cc(CNCC2CCCCC2)c(C)n1C1CCCCC1; 15.3
Cc1cc(CNCCCCCCCCNC(=N)N)c(C)n1-c1ccc(OCC(=O)N(C)C)cc1.Cl.Cl; 4.04
Cc1cc(CNCc2ccccc2)c(C)n1Cc1ccc(F)cc1; 2.32
Cc1cc(CNCc2ccccc2)c(C)n1CC1CCCCC1; 2.78

Please report selectivity ratio for every entry that follows.
1. Cc1cc(CNCC2CCCCC2)c(C)n1Cc1ccc(Cl)cc1
2. Cc1cc(CNCC2CCCCC2)c(C)n1Cc1ccc(F)cc1

Result:
1. 7.71
2. 28.8

---

Assay: Selectivity index, ratio of IC50 for cytotoxicity against human MRC5 cells to MIC90 for anti-tubercular activity against Mycobacterium tuberculosis H37Rv
Type: toxicity, cell-based
Details: read-out: Selectivity Index
Measurement Type: selectivity ratio
Give bare numbers.

The following molecules have reported results that may help.
Cc1cc(CNCC2CCCCC2)c(C)n1C(C)c1ccccc1 (stereo not given); 5.23
Cc1cc(CNCC2CCCCC2)c(C)n1-c1nc2ccccc2s1; 25.8
CCOc1ccc(-n2c(C)cc(CNC3CCCCC3)c2C)cc1; 3.87
COc1c(N2C[C@@H]3CCCN[C@@H]3C2)c(F)cc2c(=O)c(C(=O)O)cn(C3CC3)c12; 1430

Request: GET /values?readout=selectivity ratio&item= Cc1ccc(-n2c(C)cc(CNCC3CCCCC3)c2C)cc1
Result: 3.19

---

Assay: Selectivity index, ratio of IC50 for cytotoxicity against mouse J774.A1 cells to MIC90 for anti-tubercular activity against Mycobacterium tuberculosis H37Rv
Format: toxicity, cell-based
Conditions: read-out: Selectivity Index
Label rule, in plain words: selectivity ratio of 7 and up is condition met, under 7 is condition not met.

Cc1cc(CNCc2ccccc2)c(C)n1Cc1ccc(F)cc1; condition not met
Cc1ccc(-n2c(C)cc(CNCc3ccccc3)c2C)cc1; condition met
Cc1cc(CNCC2CCCCC2)c(C)n1Cc1ccc(Cl)cc1; condition not met

Request: // inclusive: selectivity ratio at least 7? input: Cc1cc(CNCC2CCCCC2)c(C)n1Cc1ccc(F)cc1
Result: condition met

Request: Answer whether selectivity ratio of COc1c(N2C[C@@H]3CCCN[C@@H]3C2)c(F)cc2c(=O)c(C(=O)O)cn(C3CC3)c12 is greater than or equal to 7.
Result: condition met

Request: Threshold query (selectivity ratio >= 7) on Cc1cc(CNCc2ccccc2)c(C)n1C(C)c1ccccc1 (stereo not drawn)
Result: condition not met

Request: Hi team, for CCOc1ccc(-n2c(C)cc(CNC3CCCCC3)c2C)cc1 , is the recorded selectivity ratio at or above 7?
Result: condition not met

Request: Please tell me: is the compound Cc1ccc(-n2c(C)cc(CNCC3CCCCC3)c2C)cc1 at or over 7 in terms of selectivity ratio?
Result: condition not met

---

Assay: Cytotoxicity against human MRC5 cells assessed as reduction in cell viability incubated for 24 hrs by resazurin-dye based analysis
Format: toxicity
Kindly state IC50 at 24 h for each of the entries shown.
One number for each entry, in µg/mL.

Record IC50 at 24 h for all entries; do not skip any.
1. Cc1cc(CNCC2CCCCC2)c(C)n1Cc1ccc(Cl)cc1
2. CCOc1ccc(-n2c(C)cc(CNC3CCCCC3)c2C)cc1
3. Cc1cc(CNNC(=O)c2ccncc2)c(C)n1-c1ccc(Cl)cc1

Result:
[10.8, 19.9, 96.1]

---

Test: Cytotoxicity against human MRC5 cells assessed as reduction in cell viability incubated for 24 hrs by resazurin-dye based analysis
Assay type: toxicity
Kindly state IC50 at 24 h for each of the entries shown.
Give bare numbers, in µg/mL.

Reference set, count: 5
Cc1cc(CNCc2ccccc2)c(C)n1C(C)c1ccccc1 (stereo unspecified); 33.3
Cc1cc(CNCc2ccccc2)c(C)n1CC1CCCCC1; 18.3
Cc1cc(CNCC2CCCCC2)c(C)n1C(C)c1ccccc1 (stereo unspecified); 23.4
Cc1cc(CNCCCCCCCCNC(=N)N)c(C)n1-c1ccc(OCC(=O)N(C)C)cc1.Cl.Cl; 36
Cc1cc(CNCC2CCCCC2)c(C)n1-c1nc2ccccc2s1; 10.3

Please supply IC50 at 24 h for each of the following items, keeping them in order.
1. Cc1cc(CNCC2CCCCC2)c(C)n1Cc1ccc(F)cc1
2. Cc1ccc(-n2c(C)cc(CNCc3ccccc3)c2C)cc1
3. Cc1cc(CNCc2ccccc2)c(C)n1Cc1ccc(F)cc1
4. Cc1ccc(-n2c(C)cc(CNCC3CCCCC3)c2C)cc1
5. Cc1cc(CNCC2CCCCC2)c(C)n1C1CCCCC1

Result:
1: 21; 2: 13.7; 3: 16.2; 4: 15.6; 5: 26.7

---

Tested on: Mycobacterium tuberculosis
Test: Anti-tubercular activity against Mycobacterium tuberculosis CF76 assessed as inhibition of mycobacterial growth incubated for 7 days by resazurin-dye based analysis
Assay type: functional
Conditions: CF76, 168 h, time 7 day
Label Fulfilled when MIC90 is strictly below 9 µg/mL; otherwise label Not fulfilled.

Below, 5 compounds whose answers are already recorded.
Cc1cc(CNCC2CCCCC2)c(C)n1Cc1ccc(F)cc1; Not fulfilled
NCC[C@H](O)C(=O)N[C@@H]1C[C@H](N)[C@@H](O[C@H]2O[C@H](CN)[C@@H](O)[C@H](O)[C@H]2O)[C@H](O)[C@H]1O[C@H]1O[C@H](CO)[C@@H](O)[C@H](N)[C@H]1O; Fulfilled
Cc1cc(CNCC2CCCCC2)c(C)n1-c1nc2ccccc2s1; Not fulfilled
NNC(=O)c1ccncc1; Not fulfilled
Cc1ccc(-n2c(C)cc(CNCc3ccccc3)c2C)cc1; Fulfilled

Request: Does the reported MIC90 of the following compound sit strictly below 9 µg/mL? CO[C@H]1/C=C/O[C@@]2(C)Oc3c(C)c(O)c4c(O)c(c(/C=N/N5CCN(C)CC5)c(O)c4c3C2=O)NC(=O)/C(C)=C\C=C\[C@H](C)[C@H](O)[C@@H](C)[C@@H](O)[C@@H](C)[C@H](OC(C)=O)[C@@H]1C
Result: Not fulfilled

Request: Item COc1c(N2C[C@@H]3CCCN[C@@H]3C2)c(F)cc2c(=O)c(C(=O)O)cn(C3CC3)c12 : MIC90 beneath 9 µg/mL, strictly?
Result: Fulfilled
